The reported measurements were obtained from patent US20210054097A1.

molecular target: T1, FX activation peptide 12-mer AADLDPTENPFD (human); assay: peptide ELISA
T1 peptide: AADLDPTENPFD-biotin
Ends that are not written are not given here.
Field: label. Allowed values: y (ELISA signal relative to background < 0.8) or n (ELISA signal relative to background >= 0.8).

Examples with answers:
binder	class_label
Nb 721E08 (VHH, monovalent Nanobody; not shown: C-terminal FLAG3 and HIS6 tag) VHH: EVQLVESGGGVVQPGGSLRLSCAASGRTFSTYSMGWFRQAPGKEREFVAAITRRGSRTYYADSVKGRFTISRDNSKNTVYLQMNSLRPEDTALYYCAADRRPADSYLDYWGQGTLVTVSS	n
Nb 701D07 (VHH, monovalent Nanobody; not shown: C-terminal FLAG3 and HIS6 tag) VHH: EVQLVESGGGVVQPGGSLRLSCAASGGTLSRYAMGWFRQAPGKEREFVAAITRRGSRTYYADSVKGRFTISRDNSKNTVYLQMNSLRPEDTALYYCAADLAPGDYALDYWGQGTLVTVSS	y
Nb 729C08 (VHH, monovalent Nanobody; also called Nb 729008; not shown: C-terminal FLAG3 and HIS6 tag) VHH: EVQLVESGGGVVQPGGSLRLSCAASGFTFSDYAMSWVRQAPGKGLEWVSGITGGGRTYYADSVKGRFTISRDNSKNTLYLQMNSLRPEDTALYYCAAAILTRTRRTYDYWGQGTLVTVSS	n

Pending binder:
Problem: Record Nb 730C03 (VHH, monovalent Nanobody; also called Nb 730003; not shown: C-terminal FLAG3 and HIS6 tag) VHH: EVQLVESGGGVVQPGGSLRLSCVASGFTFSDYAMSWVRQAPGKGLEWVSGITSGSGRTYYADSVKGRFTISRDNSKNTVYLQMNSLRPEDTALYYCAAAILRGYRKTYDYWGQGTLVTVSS : is its ELISA signal relative to background strictly below 0.8?
Result: n
